Target: CDK11A/Cyclin L2 (Homo sapiens)
Sequence (Q9UQ88 1-783): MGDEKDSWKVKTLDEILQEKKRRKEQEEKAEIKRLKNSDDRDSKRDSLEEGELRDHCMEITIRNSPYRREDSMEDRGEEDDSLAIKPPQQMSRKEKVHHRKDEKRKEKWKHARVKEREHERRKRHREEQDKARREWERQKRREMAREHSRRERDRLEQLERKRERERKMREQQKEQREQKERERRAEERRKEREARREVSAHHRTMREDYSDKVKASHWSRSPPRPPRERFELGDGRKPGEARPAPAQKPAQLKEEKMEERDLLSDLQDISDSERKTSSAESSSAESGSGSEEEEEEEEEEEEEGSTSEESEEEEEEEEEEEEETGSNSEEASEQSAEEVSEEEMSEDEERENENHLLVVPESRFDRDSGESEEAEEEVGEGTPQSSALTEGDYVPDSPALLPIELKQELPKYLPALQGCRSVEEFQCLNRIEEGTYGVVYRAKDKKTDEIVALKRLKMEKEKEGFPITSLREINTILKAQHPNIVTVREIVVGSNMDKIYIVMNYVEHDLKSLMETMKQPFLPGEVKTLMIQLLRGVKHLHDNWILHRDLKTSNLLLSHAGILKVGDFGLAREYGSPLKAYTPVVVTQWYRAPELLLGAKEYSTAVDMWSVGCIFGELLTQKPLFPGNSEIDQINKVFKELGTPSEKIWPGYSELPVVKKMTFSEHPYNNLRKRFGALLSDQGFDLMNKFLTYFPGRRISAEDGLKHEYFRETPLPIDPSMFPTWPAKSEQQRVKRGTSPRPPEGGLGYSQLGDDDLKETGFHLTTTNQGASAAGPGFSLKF
Assay: NanoBRET live-cell target engagement, CDK11A-NanoLuc/Cyclin L2 in HEK-293
Format: binding
Conditions: CDK11a/L2; 10µM; average of replicates
Recorded Inhibition at 10µM (%) Average values for a group of molecules are listed next.
Answer with a number only, understood to be in %.

# input Supply Inhibition at 10µM (%) Average measured with CDK11A/Cyclin L2 (Homo sapiens) for CNC1CCN(C(=O)c2ccc(Nc3ncc(F)c(-c4cnc(C)n4C(C)C)n3)cc2)C1 (stereo not shown) [AZD5597] .
# output 89.9

# input Supply Inhibition at 10µM (%) Average measured with CDK11A/Cyclin L2 (Homo sapiens) for CCC(CO)Nc1nc(Nc2cccc(-c3ccccn3)c2)c2ncn(C(C)C)c2n1.Cl.O [(R) - DRF053] .
# output 21.0

# input Supply Inhibition at 10µM (%) Average measured with CDK11A/Cyclin L2 (Homo sapiens) for O=C(Nc1c[nH]nc1-c1ccccn1)c1nn(C2CCNCC2)cc1Cl [BDP5290] .
# output -0.00201

# input Supply Inhibition at 10µM (%) Average measured with CDK11A/Cyclin L2 (Homo sapiens) for CC(C)c1cnn2c(NCc3ccccc3)cc(N[C@@H](CO)[C@H](O)CO)nc12 [BS-194] .
# output 17.5
